Test: soluble on expression in E. coli; label from the status in PepcDB or PDB records

BIOSEQUENCE	soluble on expression in E. coli
MEPGLDGGYLLLGVDWAINDKGDTVYRPVGLPDPDKVQRDLASQCASMLNVALRPEMQLEQVGGKTLLVVYVPEADVTHKPIYKKATGLPGGAYRRIGSSDQRCVDEDLWVLRGLEHHHHHH	not soluble
MRDFLNTKNQTNQSVYLAILRIKMKTPYQIQFEAFNADDFYTEAHAKLYAQFADNLINEGNYSIVYKGVAHACYTPITIDKAPHLKCFVLAPLAVLPEHQGKGYATQLMEQAESELGADVIFVLGDPKHYARRFNAQHNVALPIGSDESPDFWFARELTTDALDGIGQSSSTIKGVFADPIMWSHPDEQI	not soluble

----------
Assay: soluble on expression in E. coli; label from the status in PepcDB or PDB records
QUANTITY: soluble on expression in E. coli

BIOSEQUENCE	REPORTED RESULT
MGSDKIHHHHHHMSSDIHLAFAHPSERSAATARPGALDRISLRDHIVEVEIGAFQQERGTTQRVCFNVVVEIAPLPADLDDDVDRILSYDKVTEAIAHELARERLALLETLAERVAERILWEPQAVRAFVRIEKLDRGPGKLGVEIVRSADQVSHEADEDVKPHPRLMFLSNAAIDSDNLTGWIDQMECRERPLILCVGAHDLALPQTGHKWTQRRIDLLAIEQNAWRLAARDSRCKVVETRTELDWAMKNGQICVWAPSKIVLDAVEGPSEPPSNAVALAAWFASTFEAEEMIVIGAELPENPGVPLRAHAEEQHTL	not soluble
ATKEFIYLVRGMTPEQGQAALDLKVPGVYGIEEFRRFYPAGDVTAHMVGFTDLDDHGREGVELAYDDWLAGVPGKRQVIKDRRGRLIKDVQVTKNAKAGKTLALSID	not soluble

----------
Assay: soluble on expression in E. coli; label from the status in PepcDB or PDB records

BIOSEQUENCE	soluble on expression in E. coli
MGMENYNPPQEPWLVILYQDDHIMVVNKPSGLLSVPGRLEEHKDSVMTRIQRDYPQAESVHRLDMATSGVIVVALTKAAERELKRQFREREPKKQYVARVWGHPSPAEGLVDLPLICDWPNRPKQKVCYETGKPAQTEYEVVEYAADNTARVVLKPITGRSHQLRVHMLALGHPILGDRFYASPEARAMAPRLLLHAEMLTITHPAYGNSMTFKAPADFLEHHHHHH	soluble
MMMSSEMIHVEVVYALPHEQRVLKLVVEQSATVEEIIRTSGILQMYPEIDLTVNKVGIFSRNVKLDARVRDKDRIEIYRPLLADPKEIRRKRAEQAKAAANQS	not soluble
MVPQTGRAARATRESGRQTRDALFTAATELFLEHGEGVPITQICAAAGAHPNQVTYYYGSKERLFVEVACAAVLRAGKRAEDDAATAETVGDYTEKLVGSLLGPGAPSVELFTSAMLMTGRRSELRDLITDTLRTLHSSGEVALIRTLMRTGWQLRAGIDVESKAFWSAIFGLVIQKTATGESFGYSLEEAVAVIFANLQIPETVRNTSID	soluble
DRQREAAQPAASQSASAMEANPTPAPDRSTSTSLFGDSDSAPRHRLNEEPAARRTSHDSEGMYTRRSVPRESYRDQRSDDFDDDLDIPDFLR	not soluble
MKASIKGKYDTDKTSGIGSLAFNAGDIKLRATMTDATLVAGPTLTGLALAVEKPGSFIVEYNVPKKDVRFQFMNTVRIAEKPLNLTYIHSRADNRTIVDGSLVIDSANKLSANHMVGTNNCKIKYTYAHGGLATFEPCYDLAKNTWDFAVSRRFYSGDNVRATYQTSSKLLGMEWSRNNKASGFKVCASVNLADELKTPKLTAETTWNLEM	soluble
MAHYKAADSKREQFRRYLEKSGVLDTLTKVLVALYEEPEKPNSALDFLKHHLGAATPENPEIELLRLELAEMKEKYEAIVEENKKLKAKLAQYEPPQEEKRAE	soluble
MNWEQKSSMLKKKIERIKEIETTLWGNLEKCELCPRKCGVDRYRTTGICGLPARAKISNAVLHFGEEPPISGKTGAGTVFFSGCNMKCVYCQNMGFSQKGIGTEVEVEDLAEIFLILQKHGAKTLNLVTPTPHLPFIISALRIAIENGLNLPIVYNTSGYEDPEILRLLEGVVDIYLSDVRYSDNEASKKYSKTPDYWTVVQKAIVEMFRQVGIFDEEKMKGLIVRILVLPGNVVDYSEIFSFLSSLSTRIPLSIMNQYIPHFDAQKFPEISRKLNQNEYEKILELAERYGFTEGWYQSEEKERVTTRGLKEISEKLQFLRLKTHNSY	not soluble
MGSDKIHHHHHHMFQRAFLLYNGKAGNGKTDKYLKDVVPRALQSIGELTIIPSKEKGDIESICREREVDLIIVMGGDGTVHECINGLAVSPSPPPLVVLPTGTCNDFARSLRIPLSFVEAGNLLESGTWKRVPLIQANHRCYTNFLGMGIITTASEGTNPELKETFGRFSYFLSALQSLREPSPFSYTITSTKGSMSGQAILLLVMHGQFLGTLPVQLDENAIEQPFVTIYIVKEGGLPFIKDLVKGLVSPAMVNESDHIDRMTCDQCQIETEPVLSIDMDGEIYMKTPVNITTVGKVITVRVPDVNVTSDADHTIGGAQDTP	not soluble

----------
Test: soluble on expression in E. coli; label from the status in PepcDB or PDB records

BIOSEQUENCE	soluble on expression in E. coli
MPRSSLRLLAKPLLESRRGFCTSSDKIVASVLFERLRVVIPKPDPAVYAFQEFKFNWQQQFRRRYPDEFLDIAKNRAKGEYQMDYVPAPRITEADKNNDRKSLYRALDKKLYLLIFGKPFGATSDKPVWHFPEKVYDSEPTLRKCAESALKSVVGDLTHTYFVGNAPMAHMAIQPTEEMPDLPSYKRFFFKCSVVAASKYDISNCEDFVWVTKDELLEFFPEQAEFFNKMIIS	soluble
MVTFNCEVCNDTVPKKNTEKHYYRCPNAYYTCIDCSKTFEDGVSYKNHTSCISEDEKYQKALYKGNKKQKQKQQQKQQQKQHQHQPVATPAKKVEKPVIKKAEKVEKTSNGIELHKGKSLYKILKTMKDKGAKKTFLKSLVVDSEGQIRYAKE	soluble

----------
Experiment: soluble on expression in E. coli; label from the status in PepcDB or PDB records

BIOSEQUENCE	soluble on expression in E. coli
MNRCILLALLPLISAIPVAVNIDDQDAVNLGAYDRARFDLVESFHPLQPASAVTNDQIAEVRAKAAGVRQNEASISIDLPTQMLSGSSGRIPERLAFGEWTEWTSWSMCQNGERSRVRTCVSRKPALRVVCHGDAIEIEKCYVDAGEGHIPVAADPWSIEREISGDFA	not soluble
GPLGSKVDLFDFELPERLIAQVPLEQRDASRLMVLDKHTGELTDSSFKHIISFFNEGDCLVLNNTRVLPARLFGTKEDTGAKVELLLLKQETGDKWETLAKPAKRVKKGTVVTFGDGRLKAICTEELEHGGRKMEFQYDGIFYEVLESLGEMPLPPYIKEQLDDKERYQTVYSKEIGSAAAPTAGLHFTEEILQQLKDKGVQIEFITLHVGLGTFRPVSADEVEEHNMHAEFYQMSEETAAALNKVRENGGRIISVGTTSTRTLETIAGEHDGQFKASSGWTSIFIYPGYEFKAIDGMITNFHLPKSSLIMLVSALAGRENILRAYNHAVEEEYRFFSFGDAMLII	soluble
GPLGSMDAKARNCLLQHREALEKDIKTSYIMDHMISDGFLTISEEEKVRNEPTQQQRAAMLIKMILKKDNDSYVSFYNALLHEGYKDLAALLHDGIPVVSSS	soluble
VLQTRNYTCGPAALATVLQRLGVNTTEDELAGLAGTTEEGTTMQGLLEASRAKGMNATGMKLNISELKENMIAYTINDGTGHYTVINEITNDTIKLADPSLGNIEMNIEEFAEIYSGYTLVI	soluble
MKAWEIARKPRVVVYPGDPLTYVRAMMRREEEPIAVVVVESEKSEKVVGYITWNEVIQVTSHYSHLRAKDAMLDYPVAFKDDDIGDVYKRMVEEKVYAIPVLESRDNPNLVGVVTVADIVRALRRAGFK	not soluble
MTDVPALEIKNLHKTFGQNEVLKGISLQAQKGDVISIIGSSGSGKSTFLRCINLLETPTAGEIWVKGELIQMKTTRQGTVQPAKEKQVQRIRSRLAMVFQSFNLWSHMTVLENVIEAPVHVLGVPKAQAIEQAERLLRKVGLYERKDYYPGHLSGGQQQRAAIARALAVEPEVMLFDEPTSALDPELVGEVLGVMRDLAEEGRTMLVVTHEMAFARDVSNHVMFLHQGKVEEQGKPEKLFKNPDSERLKQFISSIY	not soluble
LEQLSMNLLDGALRIEHFALPQTKVAYLHLSQINFEQILALLKYQQIELKGRANATFPFWIEGKPCYVCNGSMAQAVSSRLKIAPELMQAISQSNGYSERLLAYLLHDTRITDLTSKVNINSEGEMALQAKLNMQLNQQAQTKINFNYHHQENVFKLWRTLNAGTYVEQNFENSIYQKLDRTNE	not soluble
MGSDKIHHHHHHMESLIESNINFSIFFYNPNIHPVKEYLIRKEENIRFAEKHNIPFIDADYDTDNWFARAKGMENEPERGIRCTMCFDMRFERTALYAYENGFSLISSSLGISRWKNMAQINDCGIRAASHYPDIQYWDYNWRKNGGSSRMIEISKREEFYQQEYCGCVYSLRDTNRWRMSNGRDRIKIGVKFYSNAMEND	not soluble
MQKKSQTAQSYHPMIKEFPEFYGPLTCPGQFLALLILEFGLNFAEIQKLKWENFNWNFKYLTIEKAGIKRVLPIREKFAIRVKAINNADELFAKSRQFLYTELKKFTNYSSKEIREQYILHQVKAGKSIYELATLLGLTTITTLEKYYRLEHHHHHH	not soluble
YIWIEHRTIHQHVDESQSSLHHTEKQIQTFITQHNNSFQELDLTNHHDVTATKRELLKLIHQQPATLYYELSGPNQFITNNYEHLNTKNMYLFSTHQLKFNNSTYMLKIYMANTPRLSEIKKDSRQFALIVDQYDNILYANDDRFTIGEKYRPQQFGFMNESVKLNHADHRLIIYKDIHENIED	not soluble
SLVGTPNLLTLDEADATWTLIKDKVIEEHFGPNAVAVPFLSDAACYDLLGVLVKQSRPAHTRLALPGRQGRRALKPVGPLPSLLEQAGSEGAFAHCTREYSPNGRAERAYEETRMLDGQPCKIRLHMGDLRKKVAFLLLPPGQVSLQQTLPWLRSTHSIYVIYQVFSCSWLQLGLTSTAREPQLLRLLRSLPVAFSCLKFSLQSKGVLGPQKPLTKDPLPHGANWVRPNLSIMPPLAPTSASADTTEAADVPPPVPAPPTPPPQEGPEDKPTRFSYKGRNPFWRGPQILSENWLFSPRSPPPGAQGGGPRDPDGHSMSLPLLQGLSSEFDSDD	not soluble
SAMNGFERELQSRVLSVIPHGELEGVNGPLQNYTKTMNQALQHEHVVAAAPYVRFTGLAEKGSKLKAIEVRGVDPAYEQAVSSMSDFIDPEAWQNFYSGQQQVILGRGVANELKVQVGDYVTLMIPQTGGTNKVQAPKRVRVKVAGFLTLNGQIDHSLALVPLADAQQYVRLGDGVTGISLKTDDVLDAPSIVREVGNLVNVYVYLKSWQQQFGFLYRDIQLVRT	soluble
MAHHHHHHMGQISSKEDEIEKQNIYATYPGLEQQLDMVFACHDISKQGKLSYKTVEMILRHFLMQCGFMEYVCRFVDENGTLDLKHVSNYLSIKKLMYKLKCCGESMLTLDEMKELVIIFLKKISDTYTEDQTKWLEQMKSSQEQQDKALEEAMYKYEKNILFHHAVKEQQILQNDKKLNEWNENVENAYEAQQEILRQFESSRKKNIDISLEKNNELIIAKDYIDKIKEAATDNKYDNSKCFIYPASSAPCGACTSAGAIIHHRRYKEKRRKKEYSLCL	not soluble
LRKQVELLFNTRYAKAIGISEPVKVPYSKFLMHPEELFVVGLPEGISLRRPNCFGIAKLRKILEASNSIQFVIKRPELLTEGVKEP	soluble
EPVVVSAADGEIRTGNDHLCDLLDSDPSDVFGSQIGTFFPGLDDVDLRAHCSQSPGTPLTSSCSAGGTERWVEIAFEPQQWDG	not soluble
